Hey, just so you know, these numbers are from patent US5260386A.

- assay method text: Survey of relative performance of fluorescent derivatizing agents against a cooling water background
- Type: physicochemical
- conditions used: 0.4 ppm (acid actives); 1,5-naphthalene disulfonic acid standard = 100%; at own fluorescence maximum
Please map values of Relative Intensity Value, Composition to classes as shown: one: < 50%; two: ≥ 50% and < 400%; three: ≥ 400%

For orientation, consider the following solved cases.
INSERT INTO assay_data (molecule, assigned_category) VALUES
  ('Nc1ccc(C(=O)O)cc1 [4-amino-benzoic acid]', 'two'),
  ('Nc1ccc2ccccc2c1S(=O)(=O)O [2-amino-1-naphthalene sulfonic acid]', 'two'),
  ('Nc1ccc(S(=O)(=O)O)cc1 [4-amino-benzene sulfonic acid]', 'one'),
  ('Nc1ccc2c(S(=O)(=O)O)cccc2c1 [2-amino-5-naphthalene sulfonic acid]', 'three'),
  ('Nc1ccc2cccc(S(=O)(=O)O)c2c1 [2-amino-8-naphthalene sulfonic acid]', 'three'),
  ('Nc1cccc2cccc(S(=O)(=O)O)c12 [1-amino-8-naphthalene sulfonic acid]', 'one');

Band for Nc1ccc2ccc(S(=O)(=O)O)cc2c1 [2-amino-7-naphthalene sulfonic acid] ?
three

Can you handle Nc1cccc2ccc(S(=O)(=O)O)cc12 [1-amino-7-naphthalene sulfonic acid] next?
two

Same question for Nc1ccc(S(=O)(=O)O)c2ccccc12 [1-amino-4-naphthalene sulfonic acid] please.
three

Request: Nc1cc(S(=O)(=O)O)cc2cccc(S(=O)(=O)O)c12 [1-amino-3,8-naphthalene disulfonic acid]
three

Same thing, different molecule: Cc1ccc(N)c(S(=O)(=O)O)c1 [2-amino-5-methylbenzene sulfonic acid]
one

Then this molecule: Nc1ccccc1 [aniline]
one

---

Documented Relative Performance across a set of compounds
- assay method text: Survey of relative performance of fluorescent derivatizing agents against a cooling water background
- Format: physicochemical
- conditions used: composition relative intensity / cooling water background relative intensity
Provide a numeric answer; units are not to be included.

Consider the worked cases shown below.
INSERT INTO assay_data (substance_smiles, observed_measurement) VALUES
  ('Nc1cccc2cc(S(=O)(=O)O)ccc12', 3),
  ('Nc1ccc(S(=O)(=O)O)cc1', 8),
  ('Nc1ccc2cc(S(=O)(=O)O)cc(S(=O)(=O)O)c2c1', 7),
  ('Nc1ccc2c(S(=O)(=O)O)cccc2c1S(=O)(=O)O', 49),
  ('Nc1ccc(C(=O)O)cc1', 13),
  ('Nc1ccc2ccc(S(=O)(=O)O)cc2c1', 48);

Value lookup for Relative Performance; key = Cc1ccc(N)c(S(=O)(=O)O)c1
3

Moving on to Nc1cccc2c(S(=O)(=O)O)cccc12
0

---

- assay method text: Survey of relative performance of fluorescent derivatizing agents against a cooling water background
- Type: physicochemical
- conditions used: 0.4 ppm (acid actives); 1,5-naphthalene disulfonic acid standard = 100%; at own fluorescence maximum
Kindly return fulfilled if reported Relative Intensity Value, Composition is no lower than 80%; return not fulfilled if it is lower.

INSERT INTO assay_data (compound, assigned_category) VALUES
  ('Nc1cc2ccc(S(=O)(=O)O)cc2cc1S(=O)(=O)O [2-amino-3,6-naphthalene disulfonic acid]', 'not fulfilled'),
  ('Nc1ccc(S(=O)(=O)O)c2cccc(S(=O)(=O)O)c12 [1-amino-4,8-naphthalene disulfonic acid]', 'fulfilled'),
  ('Nc1cccc2c(S(=O)(=O)O)cccc12 [1-amino-5-naphthalene sulfonic acid]', 'not fulfilled'),
  ('O=S(=O)(O)c1cccc2c(S(=O)(=O)O)cccc12 [1,5-naphthalene disulfonic acid]', 'fulfilled'),
  ('Nc1ccc2c(S(=O)(=O)O)cccc2c1S(=O)(=O)O [2-amino-1,5-naphthalene disulfonic acid]', 'fulfilled');

Record Nc1cccc2cc(S(=O)(=O)O)ccc12 [1-amino-6-naphthalene sulfonic acid] ; criterion: Relative Intensity Value, Composition no lower than 80%. Met?
not fulfilled

---

- assay method text: Survey of relative performance of fluorescent derivatizing agents against a cooling water background
- Type: physicochemical
- conditions used: 0.4 ppm (acid actives) aqueous solution
Fluorescent Maximum, emission (em) for assorted molecules
Give the value, in units of nm, as a plain number.

Below: 3 molecules and their reported Fluorescent Maximum, emission (em).
INSERT INTO assay_data (substance_smiles, observed_measurement) VALUES
  ('Nc1cccc2c(S(=O)(=O)O)cccc12', 480),
  ('Nc1ccccc1C(=O)O', 400),
  ('Nc1ccc2cccc(S(=O)(=O)O)c2c1', 440);

I am curious: what Fluorescent Maximum, emission (em) value has been reported for Nc1ccc2cc(S(=O)(=O)O)cc(S(=O)(=O)O)c2c1 ?
445

Next: Cc1ccc(N)c(S(=O)(=O)O)c1
370

Quick one: Nc1ccc2c(S(=O)(=O)O)cccc2c1
440

Also need Nc1cc(S(=O)(=O)O)cc2cccc(S(=O)(=O)O)c12 , thanks.
480

Try this molecule next: Nc1ccc(S(=O)(=O)O)c2ccccc12
420

---

- assay method text: Survey of relative performance of fluorescent derivatizing agents against a cooling water background
- Format: physicochemical
- conditions used: composition relative intensity / cooling water background relative intensity
measured endpoint: Relative Performance
The answer should be written as a number, with no unit following it.

Worked examples, 7 molecules total:
INSERT INTO measurements (substance_smiles, observed_measurement) VALUES
  ('Nc1cccc2cccc(S(=O)(=O)O)c12', 0),
  ('Nc1ccc2ccccc2c1S(=O)(=O)O', 7),
  ('Nc1cc2ccc(S(=O)(=O)O)cc2cc1S(=O)(=O)O', 8),
  ('Nc1ccc2cc(S(=O)(=O)O)ccc2c1', 78),
  ('Nc1ccc(S(=O)(=O)O)c2ccccc12', 24),
  ('Nc1ccc2cccc(S(=O)(=O)O)c2c1', 75),
  ('Nc1cc(S(=O)(=O)O)cc2cccc(S(=O)(=O)O)c12', 25);

// Relative Performance lookup, key: Nc1ccc2c(S(=O)(=O)O)cccc2c1
82

---

- assay method text: Survey of relative performance of fluorescent derivatizing agents against a cooling water background
- Assay type: physicochemical
- conditions used: 0.4 ppm (acid actives) aqueous solution
1 if Fluorescent Maximum, emission (em) is below 400 nm. -1 if not; exact matches included in -1.

INSERT INTO results (substance_smiles, assigned_category) VALUES
  ('Nc1ccc2ccccc2c1S(=O)(=O)O', -1),
  ('Nc1ccc2ccc(S(=O)(=O)O)cc2c1', -1),
  ('Nc1ccccc1', 1),
  ('Nc1ccc2c(S(=O)(=O)O)cc(S(=O)(=O)O)cc2c1', -1),
  ('Nc1cccc(C(=O)O)c1', 1),
  ('Nc1ccc(S(=O)(=O)O)cc1', 1),
  ('Nc1cccc2cc(S(=O)(=O)O)ccc12', -1),
  ('Nc1ccc(S(=O)(=O)O)c2cccc(S(=O)(=O)O)c12', -1);

Now for a further molecule.
# TODO verify Fluorescent Maximum, emission (em) < 400 nm strictly for this molecule: Nc1cc2ccc(S(=O)(=O)O)cc2cc1S(=O)(=O)O
-1

---

- assay method text: Survey of relative performance of fluorescent derivatizing agents against a cooling water background
- Type: physicochemical
- conditions used: 0.4 ppm (acid actives) aqueous solution
measured endpoint: Fluorescent Maximum, excitation (ex) (nm)
Report the figure in nm without appending any unit label.

INSERT INTO results (substance_smiles, observed_measurement) VALUES
  ('Nc1ccc2ccc(S(=O)(=O)O)cc2c1', 245);

Bench note: what Fluorescent Maximum, excitation (ex) did Nc1cccc(C(=O)O)c1 show?
240

And Nc1ccc2c(S(=O)(=O)O)cccc2c1S(=O)(=O)O ?
250

For Nc1cc(S(=O)(=O)O)cc2cccc(S(=O)(=O)O)c12 then?
245

# repeat for Nc1cc(S(=O)(=O)O)ccc1S(=O)(=O)O
310

Follow-up item: Nc1ccccc1
230

Also Nc1ccc(C(=O)O)cc1 ?
270

---

- assay method text: Survey of relative performance of fluorescent derivatizing agents against a cooling water background
- Assay type: physicochemical
- conditions used: composition relative intensity / cooling water background relative intensity
Listed compounds paired with reported Relative Performance
Just the number, please, no unit attached.

Fill in the blank: the reported Relative Performance of Nc1ccccc1C(=O)O [2-amino-benzoic acid] is ____.
13

---

- assay method text: Survey of relative performance of fluorescent derivatizing agents against a cooling water background
- Assay type: physicochemical
- conditions used: 0.4 ppm (acid actives); 1,5-naphthalene disulfonic acid standard = 100%; at own fluorescence maximum
# Lookup of reported Relative Intensity Value, Composition keyed by entry
Your answer should be a plain number; it is taken to be in %.

Worked cases, answers included:
INSERT INTO results (substance_smiles, observed_measurement) VALUES
  ('Nc1cccc(C(=O)O)c1', 21),
  ('Nc1cc(S(=O)(=O)O)ccc1S(=O)(=O)O', 54),
  ('Nc1ccccc1C(=O)O', 110);

Given the compound Nc1ccc2cc(S(=O)(=O)O)cc(S(=O)(=O)O)c2c1 , what is its reported Relative Intensity Value, Composition?
69

Request: Nc1ccc2c(S(=O)(=O)O)cc(S(=O)(=O)O)cc2c1
776

Same question for Nc1ccc2cc(S(=O)(=O)O)ccc2c1 please.
760
